# assay target: CK2 holoenzyme (CK2α2β2) (Homo sapiens)
# Sequence (P68400 whole entry): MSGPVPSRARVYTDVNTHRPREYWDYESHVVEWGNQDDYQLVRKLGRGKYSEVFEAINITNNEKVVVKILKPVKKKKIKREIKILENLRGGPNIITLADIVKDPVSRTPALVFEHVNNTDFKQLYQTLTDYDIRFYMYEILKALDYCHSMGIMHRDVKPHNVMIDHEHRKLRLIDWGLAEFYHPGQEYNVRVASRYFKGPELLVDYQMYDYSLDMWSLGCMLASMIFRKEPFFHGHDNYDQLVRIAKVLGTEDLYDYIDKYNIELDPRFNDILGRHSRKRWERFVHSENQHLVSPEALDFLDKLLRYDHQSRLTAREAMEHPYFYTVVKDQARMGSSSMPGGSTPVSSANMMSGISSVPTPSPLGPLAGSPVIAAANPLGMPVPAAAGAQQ
# method description: Capillary electrophoresis assay, inhibition of the CK2 holoenzyme kinase activity
# condition: CE assay; 60 µM ATP, 114 µM peptide […]
value type: IC50 (nM)
Note: unit nM is implicit; provide only the numeric part.

Q: IC50 lookup needed for COC(=O)[C@H](Cc1c[nH]cn1)NC(=O)[C@H]1c2[nH]c3ccccc3c2[C@H](c2cc(OC)c(OC)c(OC)c2)[C@@H]2C(=O)NC(=O)[C@@H]21 [(+)-20a] , thanks.
Result: 2500

---

Items are presented alongside their recorded Ki.
# assay target: CK2α/CK2β interaction (human CK2α1–335, human CK2β1–193) (Homo sapiens, UniProt P68400)
# Construct: human CK2α^1–335
# Sequence (P68400 1-335): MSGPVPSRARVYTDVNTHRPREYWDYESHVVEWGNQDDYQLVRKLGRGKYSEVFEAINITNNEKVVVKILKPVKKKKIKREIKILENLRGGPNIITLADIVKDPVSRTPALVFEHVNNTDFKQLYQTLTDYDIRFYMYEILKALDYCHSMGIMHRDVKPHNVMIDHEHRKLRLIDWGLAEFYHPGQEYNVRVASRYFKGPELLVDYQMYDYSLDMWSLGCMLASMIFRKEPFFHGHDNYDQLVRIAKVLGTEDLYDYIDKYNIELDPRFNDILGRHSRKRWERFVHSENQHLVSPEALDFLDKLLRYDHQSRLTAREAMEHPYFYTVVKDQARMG
# method description: Microscale thermophoresis (MST) assay of the CK2α/CK2β subunit interaction
# condition: MST; global analysis, KD′ = KD [1 + (ccompound/Ki)]; n.s. = KD′ not significantly different from KD; read-out: Inhibition of CK2α/CK2β Interaction Ki
Note: unit µM is implicit; provide only the numeric part.

Example entries and their recorded answers appear below.
- molecule: "COc1cc([C@@H]2c3c([nH]c4ccccc34)[C@@H](C(=O)NCc3ccccc3)[C@@H]3C(=O)NC(=O)[C@H]23)cc(OC)c1OC (racemic) [(±)-12]"
  assay target: "CK2α/CK2β interaction (human CK2α1–335, human CK2β1–193) (Homo sapiens, UniProt P68400)"
  Ki [µM]: 14
- molecule: "CNC(=O)[C@@H]1c2[nH]c3ccccc3c2[C@@H](c2cc(OC)c(OC)c(OC)c2)[C@H]2C(=O)NC(=O)[C@H]21 (racemic) [(±)-11]"
  assay target: "CK2α/CK2β interaction (human CK2α1–335, human CK2β1–193) (Homo sapiens, UniProt P68400)"
  Ki [µM]: 6
- molecule: "COC(=O)[C@H](CO)NC(=O)[C@H]1c2[nH]c3ccccc3c2[C@H](c2cc(OC)c(OC)c(OC)c2)[C@@H]2C(=O)NC(=O)[C@@H]21 [(+)-18a]"
  assay target: "CK2α/CK2β interaction (human CK2α1–335, human CK2β1–193) (Homo sapiens, UniProt P68400)"
  Ki [µM]: 9.1
- molecule: "CCOC(=O)[C@H]1c2[nH]c3ccccc3c2[C@H](c2cc(OC)c(OC)c(OC)c2)[C@@H]2C(=O)NC(=O)[C@@H]21 (racemic) [(±)-9a]"
  assay target: "CK2α/CK2β interaction (human CK2α1–335, human CK2β1–193) (Homo sapiens, UniProt P68400)"
  Ki [µM]: 32
- molecule: "COc1cc([C@@H]2c3c([nH]c4ccccc34)[C@@H](C(=O)N3CCCCC3)[C@@H]3C(=O)NC(=O)[C@H]23)cc(OC)c1OC (racemic) [(±)-16]"
  assay target: "CK2α/CK2β interaction (human CK2α1–335, human CK2β1–193) (Homo sapiens, UniProt P68400)"
  Ki [µM]: 9.7
- molecule: "COc1cc([C@@H]2c3c([nH]c4ccccc34)[C@@H](C(=O)Nc3cccnc3)[C@@H]3C(=O)NC(=O)[C@H]23)cc(OC)c1OC (racemic) [(±)-15]"
  assay target: "CK2α/CK2β interaction (human CK2α1–335, human CK2β1–193) (Homo sapiens, UniProt P68400)"
  Ki [µM]: 7.4
- molecule: "COC(=O)[C@H](Cc1c[nH]cn1)NC(=O)[C@H]1c2[nH]c3ccccc3c2[C@H](c2cc(OC)c(OC)c(OC)c2)[C@@H]2C(=O)NC(=O)[C@@H]21 [(+)-20a]"
  assay target: "CK2α/CK2β interaction (human CK2α1–335, human CK2β1–193) (Homo sapiens, UniProt P68400)"
  Ki [µM]: 6.1

# ---- query molecule ----
Q: Ki lookup needed for COc1cc([C@@H]2c3c([nH]c4ccccc34)[C@@H](C(=O)Nc3nc4ccccc4[nH]3)[C@@H]3C(=O)NC(=O)[C@H]23)cc(OC)c1OC (racemic) [(±)-17] , thanks.
Result: 7.1

Taken from paper PMC11722180.
